Origin of measurements: patent US8450308B2

Task for the reader: assign each of the following compounds its reported pIC50.
- TEST TARGET: truncated human beta-secretase (residues 1-458, His6-tagged at the C-terminus) (Homo sapiens)
- Construct: truncated human beta-secretase (residues 1-458, His6-tagged at the C-terminus); His6 (C); made in house; host or cells: insect cells D. melanogaster S2 (baculovirus expression system (so in the source))
- METHOD: BACE fluorescence quench assay
- Format: biochemical
- STATED CONDITIONS: in vitro enzyme activity, BACE fluorescence assay, pH 4.5; read-out: IC50
pIC50: −log10 of the molar value.

Look over these answered cases.
IN: Record request: pIC50 value, item CN1OC2(CC(C3CCCOC3)Oc3ccc(-c4cccc(Cl)c4)cc32)N=C1N (stereo not shown)
OUT: 6.30 to 7.00

IN: Record request: pIC50 value, item CN1C(=O)C2(CC([C@H]3CCCc4ccccc43)Oc3ccc(-c4cccc(C#N)c4)cc32)N=C1N (stereo in doubt)
OUT: 6.30 to 7.00

IN: Record request: pIC50 value, item CN1OC2(C[C@@]3(CCCC4CCCCC43)Oc3ccc(-c4cccc(C#N)c4)cc32)N=C1N (stereo partly shown)
OUT: 5.30 to 6.00

IN: Record request: pIC50 value, item CN1C(=O)C2(CC(c3cccc(F)c3)Oc3ccc(-c4cccc(C#N)c4)cc32)N=C1N (stereo not shown)
OUT: 6.30 to 7.00

Hi there! I need pIC50 for each item below, if you can.
1. CCCN1C(=O)[C@@]2(C[C@H](c3ccccc3)Oc3ccc(Br)cc32)N=C1N [Compound 57a]
2. CN1OC2(CC(CO)(CO)Oc3ccc(-c4cccc(C#N)c4)cc32)N=C1N (stereo not shown)
3. CN1C(=O)[C@@]2(C[C@@]3(CCCOC3)Oc3ccc(-c4cc(C#N)ccc4C(F)(F)F)cc32)N=C1N

OUT:
1: 4.30 to 5.00; 2: 5.30 to 6.00; 3: 4.30 to 5.00

* * *

- TEST TARGET: truncated human beta-secretase (residues 1-458, His6-tagged at the C-terminus) (Homo sapiens, UniProt P56817)
- Construct: truncated human beta-secretase (residues 1-458, His6-tagged at the C-terminus); His6 (C); made in house; host or cells: insect cells D. melanogaster S2 (baculovirus expression system (so in the source))
- Sequence (P56817 22-458): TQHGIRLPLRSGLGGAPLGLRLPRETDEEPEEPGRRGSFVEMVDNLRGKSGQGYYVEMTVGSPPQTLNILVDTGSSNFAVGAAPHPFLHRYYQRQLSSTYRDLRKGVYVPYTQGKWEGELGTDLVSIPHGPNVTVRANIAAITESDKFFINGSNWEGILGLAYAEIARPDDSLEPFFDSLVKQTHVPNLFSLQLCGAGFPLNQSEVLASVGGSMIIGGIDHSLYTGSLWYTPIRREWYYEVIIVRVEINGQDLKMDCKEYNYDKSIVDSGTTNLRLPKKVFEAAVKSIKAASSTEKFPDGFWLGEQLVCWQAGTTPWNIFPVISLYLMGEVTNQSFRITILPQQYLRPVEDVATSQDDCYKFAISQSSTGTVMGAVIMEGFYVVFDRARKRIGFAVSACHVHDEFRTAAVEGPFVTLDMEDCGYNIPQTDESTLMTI
- METHOD: BACE fluorescence quench assay
- Assay type: biochemical
- STATED CONDITIONS: in vitro enzyme activity, BACE fluorescence assay, pH 4.5; read-out: IC50
pIC50: −log10 of the molar value.
PARAMETER: pIC50

Look over these answered cases.
IN: Record request: pIC50 value, item Cc1ccc(C#N)cc1-c1ccc2c(c1)[C@]1(C[C@@H](C3CCOC(C)(C)C3)O2)N=C(N)N(C)C1=O (stereo partly shown) [Compound 437]
OUT: 5.00 to 5.30

IN: Record request: pIC50 value, item CN1OC2(CC(c3ccccc3)Oc3ccc(-c4cccnc4)cc32)N=C1N (stereo not shown) [Compound 102]
OUT: 5.30 to 6.00

IN: Record request: pIC50 value, item CN1OC2(CC3(CCCOC3)Oc3ccc(Oc4ccccc4)cc32)N=C1N (stereo not shown) [Compound 130]
OUT: 4.30 to 5.00

IN: Record request: pIC50 value, item CN1OC2(CC(C3CCOCC3)Oc3ccc(-c4cccc(C#N)c4)cc32)N=C1N (stereo not shown) [Compound 88]
OUT: 6.30 to 7.00

IN: Record request: pIC50 value, item CN1OC2(CC3(Cc4ccccc4C3)Oc3ccc(-c4cccc(C#N)c4)cc32)N=C1N (stereo not shown) [Compound 315]
OUT: 6.30 to 7.00

IN: Record request: pIC50 value, item COc1cc(OC)cc(-c2ccc3c(c2)[C@]2(C[C@]4(CCCOC4)O3)N=C(N)N(C)C2=O)c1 [Compound 283]
OUT: 6.30 to 7.00

IN: Record request: pIC50 value, item CN1OC2(CC3(CCC(c4ccccc4)CC3)Oc3ccc(-c4cccc(C#N)c4)cc32)N=C1N (stereo not shown) [Compound 313]
OUT: 6.30 to 7.00

IN: Record request: pIC50 value, item NC1=NC2(CC(c3ccccc3)Oc3ccc(Br)cc32)C(=O)N1CCC1CC1 (stereo not shown) [Compound 59]
OUT: 4.30 to 5.00

Hi there! I need pIC50 for each item below, if you can.
1. CN1C(=O)C2(CC(c3ccccc3F)Oc3ccc(Br)cc32)N=C1N (stereo not shown) [Compound 63]
2. CN1C(=O)C2(C[C@H]([C@@H]3CCOC(C)(C)C3)Oc3ccc(-c4cccc(C#N)c4)cc32)N=C1N (stereo partly shown) [Compound 453]
3. CN1OC2(CC3(CCCOC3)Oc3ccc(-c4cccc(F)c4)cc32)N=C1N (stereo not shown) [Compound 119]
4. CN1C(=O)C2(CC(C3CCCCC3)Oc3ccc(-c4cccc(C#N)c4)cc32)N=C1N (stereo not shown) [Compound 3]
5. CN1O[C@]2(C[C@]3(CCCc4ccccc43)Oc3ccc(-c4cccc(C#N)c4)cc32)N=C1N [Compound 374]
6. CN1C(=O)C2(CC(C3CCOC(C)(C)C3)Oc3ccc(-c4cc(F)cc(Cl)c4)cc32)N=C1N (stereo not shown) [Compound 417]
7. CN1C(=O)C2(CC3(CCCC3)Oc3ccc(-c4cccc(C#N)c4)cc32)N=C1N (stereo not shown) [Compound 79]
8. CCC1CCC2(C1)CC1(N=C(N)N(C)O1)c1cc(-c3cccc(C#N)c3)ccc1O2 (stereo not shown) [Compound 120]

OUT:
1: 4.30 to 5.00; 2: 4.30 to 5.00; 3: 5.30 to 6.00; 4: 6.30 to 7.00; 5: 5.30 to 6.00; 6: 5.30 to 6.00; 7: 6.00 to 6.30; 8: 5.30 to 6.00
